Hey, just so you know, these numbers are from ChEMBL document CHEMBL1201862.

tested on: INS1; assay: beta cell apoptosis inhibitors, cytokine rescue, dose response, luminescence, retest (AID 449756); assay type: functional, cell-based; details: Rattus norvegicus;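 further: cell death triggered by IL-1 beta plus TNF-alpha plus IFN-gamma mixture; protective hits raise ATP signal compared with cytokine alone wells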
The source made the active and inactive calls. No stated cut-off is given here; in the data, actives have a measured AC50 and inactives only a lower limit.

| Compound | AC50 |
| --- | --- |
| FC(F)(F)c1ccccc1N=C(S)N1CCN(Cc2ccc3c(c2)OCO3)CC1 | 7.02 µM (active) |
| Cc1ccc(S(=O)(=O)CC2CSc3nc4ccccc4n32)cc1 (stereo not given) | 3.55 µM (active) |
| CC[N+](C)(CC)CCC(c1ccccc1)C1CCCCC1 (stereo not given) | 233 µM (active) |
| COc1ccc(Nc2nc(N3CCCC3)c3ccccc3n2)cc1 | 3.07 µM (active) |
| c1ccc(CSc2ccc(-c3ccccn3)nn2)cc1 | 5.5 µM (active) |
